Target: HLA-DR DRB1*1302 (DR13) (Homo sapiens, UniProt P01903+P01911, A100E/A169T/K41T/L162R/M171V/P40S/Q125H/Q178H/Q39Y/Q99D/R42S/S66N/T262R/V115G/W38E/Y61H)
Sequence (P01903 26-254 limits assumed, other chains not shown): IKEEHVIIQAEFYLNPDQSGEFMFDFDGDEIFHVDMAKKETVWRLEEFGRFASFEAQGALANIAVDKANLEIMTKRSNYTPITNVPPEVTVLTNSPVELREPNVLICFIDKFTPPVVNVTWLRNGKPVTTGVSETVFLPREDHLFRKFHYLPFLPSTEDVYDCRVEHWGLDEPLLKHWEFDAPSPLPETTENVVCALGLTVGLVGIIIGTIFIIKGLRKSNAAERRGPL
Experiment: biochemical
Type: binding
Conditions: DRBI *1302
Reported pIC50 values follow for various compounds
// field semantics: pIC50 = negative decimal log of concentration (mol/L)

As a guide, the following entries are already answered.
smiles.repr	pIC50
CC[C@H](C)[C@H](NC(=O)[C@@H](NC(=O)[C@@H](N)CO)C(C)C)C(=O)N[C@@H](CC(C)C)C(=O)N[C@@H](CC(C)C)C(=O)NCC(=O)N[C@@H](CCCNC(=N)N)C(=O)N[C@@H](Cc1c[nH]cn1)C(=O)N[C@@H](CO)C(=O)N[C@@H](CC(C)C)C(=O)N[C@@H](Cc1ccccc1)C(=O)N[C@@H](Cc1c[nH]cn1)C(=O)N1CCC[C@H]1C(=O)N[C@@H](CCC(=O)O)C(=O)N[C@@H](CC(=O)O)C(=O)O	7.02
CC(C)C[C@H](NC(=O)[C@H](CCC(N)=O)NC(=O)[C@H](CC(=O)O)NC(=O)[C@H](CCC(=O)O)NC(=O)[C@H](CO)NC(=O)[C@H](CC(C)C)NC(=O)[C@@H]1CCCN1C(=O)[C@@H](NC(=O)[C@@H](N)[C@@H](C)O)C(C)C)C(=O)N[C@@H](CC(C)C)C(=O)N[C@@H](Cc1ccc(O)cc1)C(=O)N[C@@H](CC(C)C)C(=O)N1CCC[C@H]1C(=O)N[C@@H](Cc1ccccc1)C(=O)N[C@@H](CCCNC(=N)N)C(=O)O	5.28
CC[C@H](C)[C@H](NC(=O)[C@H](CO)NC(=O)[C@H](CC(=O)O)NC(=O)[C@H](CCCNC(=N)N)NC(=O)[C@H](Cc1ccc(O)cc1)NC(=O)[C@@H](NC(=O)[C@@H](NC(=O)[C@H](Cc1ccccc1)NC(=O)[C@@H](N)CC(C)C)C(C)C)C(C)C)C(=O)N1CCC[C@H]1C(=O)N[C@@H](Cc1c[nH]cn1)C(=O)N[C@@H](C)C(=O)N[C@@H](C)C(=O)N[C@@H](CS)C(=O)N[C@@H](Cc1c[nH]cn1)C(=O)O	6.16
CC[C@H](C)[C@H](NC(=O)[C@H](Cc1c[nH]c2ccccc12)NC(=O)[C@@H](NC(=O)[C@@H](N)C(C)C)[C@@H](C)O)C(=O)NCC(=O)N[C@@H](C)C(=O)N[C@@H](C)C(=O)N1CCC[C@H]1C(=O)N[C@@H](CC(C)C)C(=O)N[C@H](C(=O)N[C@@H](CC(C)C)C(=O)N[C@@H](CO)C(=O)N[C@@H](CCCNC(=N)N)C(=O)N[C@H](C(=O)N[C@H](C(=O)O)C(C)C)[C@@H](C)CC)[C@@H](C)CC	5.63

Turning now to a further record.
**Q:** So what's the measured pIC50 for this one? "CC(C)C[C@H](NC(=O)CNC(=O)[C@H](CC(N)=O)NC(=O)[C@@H](N)Cc1ccc(O)cc1)C(=O)N[C@@H](CC(C)C)C(=O)N1CCC[C@H]1C(=O)N1CCC[C@H]1C(=O)N[C@@H](Cc1ccc(O)cc1)C(=O)N[C@@H](C)C(=O)N[C@@H](CO)C(=O)N[C@@H](CS)C(=O)N[C@@H](Cc1c[nH]cn1)C(=O)N[C@@H](CC(C)C)C(=O)N[C@H](C(=O)N[C@@H](CCC(=O)O)C(=O)O)[C@@H](C)O"
**A:** 4.93
